So I've got a bunch of compounds here, and I need their logP values.
Experiment: Octanol-water partition co-efficient, log P of the compound by shake flask method
Format: physicochemical
Output spec: single numeric token, no unit.

QUERY: I am curious: what logP value has been reported for COc1ccc2c(c1)c(=O)c(C(=O)O)cn2CC(O)Cn1c([N+](=O)[O-])cnc1C (stereo not given) ?
RESULT: -0.24

QUERY: I am curious: what logP value has been reported for Cc1ncc([N+](=O)[O-])n1CC(O)Cn1cc(C(=O)O)c(=O)c2cccc(F)c21 (stereo not given) ?
RESULT: -0.13

QUERY: I am curious: what logP value has been reported for Cc1ccc2c(c1)c(=O)c(C(=O)O)cn2CC(O)Cn1c([N+](=O)[O-])cnc1C (stereo not given) ?
RESULT: -0.03

QUERY: I am curious: what logP value has been reported for Cc1ncc([N+](=O)[O-])n1CC(O)Cn1cc(C(=O)O)c(=O)c2cc(F)ccc21 (stereo not given) ?
RESULT: -0.13

QUERY: I am curious: what logP value has been reported for Cc1ncc([N+](=O)[O-])n1CC(O)Cn1cc(C(=O)O)c(=O)c2cc(F)c(Cl)cc21 (stereo not given) ?
RESULT: 0.18
